The measurements presented in this section are drawn from the domain aggregation screens of Martell et al. (2025).

assay-text: soluble fraction after stress (log2 fold change); higher = more stays soluble; pooled small domains, quantitative proteomics;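 note: 20 min heating vs room temperature control held 20 min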
conditions: stress: 75 degC
// classify(record): look up soluble fraction (log2) in ranges Low (below -1), Mid (-1 to below -0.3), High (-0.3 or more)

Example entries begin here.
seq | label-value
HMPDLQKAIDDLLQVVDKRLNTSFESILNEVNSEKEAVAFFLALLEAVRWGFVKASQSDEGIKIEK | High
HMKHTVSVDRLQPGVFVSLGGLSWLDHPFLLNRFRLTDHDQIKVLRSLGVKEIEWDPTRSTAQPLPE | Low
HMKFLYQQVYQDIKDKITSAQYQFGDLLPSEREIGEEYHVDRTTVRKAFSLLVDEGLVEKRAGKGSVVIS | Mid

Task item: Which bin should I file `HMGKEWPTPDNVEEWKKLVKKARLWPIQADQAQSEETRERNRKKWELFVAYAKRFGYRAGIGETGKPFVNN` under?
Reply: Low

Task item: Place this sequence in its band: `HMAELAKAKLDAAVQVALLKAGALDTDYLAYKLQGMDGVALDDKGSLTGWDTTLETLKSQYPTQFA`
Reply: Mid

Task item: Band assignment needed for `HMGKELSTVVVPDLTGLSVLEARNVLTKVGLQLTPSGAGIAFKQIPTPGTRLTLGATVTVYFVATGY` please.
Reply: Low

Task item: State the class of the sequence shown: `HMFKNWMPFDEARIFVRKLKFNSHDEFRKYLKANEINIPSKPWSTYKGKGWVSIGDFLGTHR`
Reply: Low

Task item: Class for `HMKIKKIWFDGDYIYGMDERNNTYRQSLLWYSKLRNASAEERERYTFSTIGIHWRELDEDVSFESF` ?
Reply: Low

Task item: Would you mind sorting `HMKEPIYQTILSALILELNTNHFRKNDPFYSESELRKKYQVSSTTVVRVLNMLADQGYIYRIQGKGSFVSK` into the appropriate category?
Reply: Low

Task item: Category of `HMDNIPAHIKAKIINYVNRNYPGAIIKDIERKSNGRYEAEIVYNNREYDLLFDAQGNFISASLDDK` , please.
Reply: High
